selectivity ratio reference
protocolDescription: in vitro
statedConditions: human
Description: Selectivity index, ratio of CC50 for mock-infected human MT4 cells to EC50 for HIV1 NL4-3 infected in human MT4 cells

Known results for compounds:
Cc1cc(C)cc(S(=O)(=O)c2c(C(=O)NCc3ccccn3)[nH]c3ccc(Cl)cc23)c1 :: > 5510
Cc1cc(C)cc(S(=O)(=O)c2c(C(=O)NCc3ccnc4ccccc34)[nH]c3ccc(Cl)cc23)c1 :: > 827
Cc1cc(C)cc(S(=O)(=O)c2c(C(=O)NCCc3ccncc3)[nH]c3ccc(Cl)cc23)c1 :: > 5340

Item: Cc1cc(C)cc(S(=O)(=O)c2c(C(=O)NCCc3ccccn3)[nH]c3ccc(Cl)cc23)c1 | selectivity ratio: > 5340

selectivity ratio measured on Cc1cc(C)cc(S(=O)(=O)c2c(C(=O)Nc3cccc(C#N)c3)[nH]c3ccc(Cl)cc23)c1 = > 4900

Documented selectivity ratio of Cc1cc(C)cc(S(=O)(=O)c2c(C(=O)NCCc3cccnc3)[nH]c3ccc(Cl)cc23)c1 : > 5090

Lookup result for Cc1cc(C)cc(S(=O)(=O)c2c(C(=O)NCc3cccnc3)[nH]c3ccc(Cl)cc23)c1 ; measured selectivity ratio: > 5010

Quick note, selectivity ratio for Cc1cc(C)cc(S(=O)(=O)c2c(C(=O)Nc3ccc(C#N)cc3)[nH]c3ccc(Cl)cc23)c1 landed at > 980

Cc1cc(C)cc(S(=O)(=O)c2c(C(=O)NC(C)C(N)=O)[nH]c3ccc(Cl)cc23)c1 (racemic) yielded selectivity ratio of 3020

Measured selectivity ratio, Cc1cc(C)cc(S(=O)(=O)c2c(C(=O)NCc3ccc(C#N)cc3)[nH]c3ccc(Cl)cc23)c1 : > 6970

Field selectivity ratio (entry Cc1cc(C)cc(S(=O)(=O)c2c(C(=O)NCc3ccncc3)[nH]c3ccc(Cl)cc23)c1 ) reads > 5510

Entry Cc1cn([C@H]2C[C@H](N=[N+]=[N-])[C@@H](CO)O2)c(=O)[nH]c1=O [ZIDOVUDINE] — recorded selectivity ratio = > 2400

For record Cc1cc(C)cc(S(=O)(=O)c2c(C(=O)Nc3ccccc3C#N)[nH]c3ccc(Cl)cc23)c1 the listed selectivity ratio is > 5390

---

protocolDescription: Cytotoxicity against mock-infected human MT4 cells measured after 5 days by MTT assay
Format: cell-based
assayEndpoint: CC50 at 120 h

Cc1cn([C@H]2C[C@H](N=[N+]=[N-])[C@@H](CO)O2)c(=O)[nH]c1=O [ZIDOVUDINE] :: > 18.7 µM
Cc1ccnc2c1NC(=O)c1cccnc1N2C1CC1 [NEVIRAPINE] :: > 18.8 µM
Cc1cc(C)cc(S(=O)(=O)c2c(C(=O)NCc3ccncc3)[nH]c3ccc(Cl)cc23)c1 :: > 11 µM
Cc1cc(C)cc(S(=O)(=O)c2c(C(=O)NCc3ccc(C#N)cc3)[nH]c3ccc(Cl)cc23)c1 :: > 10.5 µM

For this molecule ( Cc1cc(C)cc(S(=O)(=O)c2c(C(=O)Nc3cccc(C#N)c3)[nH]c3ccc(Cl)cc23)c1 ), measured CC50 at 120 h is > 10.8 µM

Memo: Cc1cc(C)cc(S(=O)(=O)c2c(C(=O)Nc3ccccc3C#N)[nH]c3ccc(Cl)cc23)c1 , reported CC50 at 120 h: > 10.8 µM

Measured CC50 at 120 h, Cc1cc(C)cc(S(=O)(=O)c2c(C(=O)NCCc3ccccn3)[nH]c3ccc(Cl)cc23)c1 : > 10.7 µM

Per the records, this molecule ( Cc1cc(C)cc(S(=O)(=O)c2c(C(=O)Nc3ccc(C#N)cc3)[nH]c3ccc(Cl)cc23)c1 ) has CC50 at 120 h equal to > 10.8 µM

Recorded CC50 at 120 h (molecule O=C1Nc2ccc(Cl)cc2[C@@](C#CC2CC2)(C(F)(F)F)O1 [EFAVIRENZ] ): > 15.8 µM

The recorded CC50 at 120 h for Cc1cc(C)cc(S(=O)(=O)c2c(C(=O)NCCc3ccncc3)[nH]c3ccc(Cl)cc23)c1 is > 10.7 µM

The molecule listed as Cc1cc(C)cc(S(=O)(=O)c2c(C(=O)NCc3ccccn3)[nH]c3ccc(Cl)cc23)c1 shows CC50 at 120 h equal to > 11 µM

Entry under test: Cc1cc(C)cc(S(=O)(=O)c2c(C(=O)NC(C)C(N)=O)[nH]c3ccc(Cl)cc23)c1 (racemic) . Its CC50 at 120 h was 6.04 µM

Notebook: Cc1cc(C)cc(S(=O)(=O)c2c(C(=O)NCc3cccnc3)[nH]c3ccc(Cl)cc23)c1 , CC50 at 120 h read as > 11 µM

Entry under test: Cc1cc(C)cc(S(=O)(=O)c2c(C(=O)NCc3ccnc4ccccc34)[nH]c3ccc(Cl)cc23)c1 . Its CC50 at 120 h was > 9.92 µM

Quick note, CC50 at 120 h for Cc1cc(C)cc(S(=O)(=O)c2c(C(=O)NCCc3cccnc3)[nH]c3ccc(Cl)cc23)c1 landed at > 10.7 µM

---

Collected pEC50 values appear next to each entry.
System: Human immunodeficiency virus 1
protocolDescription: microbe, parasite or virus in culture
statedConditions: Human immunodeficiency virus 1, MT4, 120 h
Description: Antiviral activity against HIV1 containing reverse transcriptase Y188L mutant infected in human MT4 cells assessed as inhibition of virus-induced cytopathicity measured 5 days post infection by MTT assay
Reminder that pEC50 means the negative base-10 logarithm of the concentration expressed in mol/L.

Guide cases for pEC50, answers given:
Cc1cn([C@H]2C[C@H](N=[N+]=[N-])[C@@H](CO)O2)c(=O)[nH]c1=O :: 7.93
Cc1cc(C)cc(S(=O)(=O)c2c(C(=O)NCc3cccnc3)[nH]c3ccc(Cl)cc23)c1 :: 7.36

Short answer for Cc1cc(C)cc(S(=O)(=O)c2c(C(=O)NCCc3cccnc3)[nH]c3ccc(Cl)cc23)c1 : pEC50 was 6.30

The reported value for Cc1cc(C)cc(S(=O)(=O)c2c(C(=O)Nc3cccc(C#N)c3)[nH]c3ccc(Cl)cc23)c1 in terms of pEC50 is 5.86

Reported pEC50 of Cc1cc(C)cc(S(=O)(=O)c2c(C(=O)NCc3ccncc3)[nH]c3ccc(Cl)cc23)c1 : 7.66

---

Consider the following molecules and their measured pIC50 readings.
testTarget: Human immunodeficiency virus type 1 reverse transcriptase (Human immunodeficiency virus 1, UniProt Q72547, K103N)
protocolDescription: Inhibition of HIV1 reverse transcriptase K103N mutant RNA-dependent DNA polymerase activity using poly(rA)/oligo(dT)10:1 and [3H]-dTTP substrate
Entry type: numeric. Quantity: pIC50, the -log10 of concentration in molar units.

Cc1cc(C)cc(S(=O)(=O)c2c(C(=O)NCc3ccncc3)[nH]c3ccc(Cl)cc23)c1 :: 7.35
Cc1cc(C)cc(S(=O)(=O)c2c(C(=O)NCc3cccnc3)[nH]c3ccc(Cl)cc23)c1 :: 7.49

Note to self: pIC50 recorded for Cc1cc(C)cc(S(=O)(=O)c2c(C(=O)NCCc3cccnc3)[nH]c3ccc(Cl)cc23)c1 was 6.79

---

Tested on: Human immunodeficiency virus 1
protocolDescription: Antiviral activity against HIV1 containing reverse transcriptase K103N mutant infected in human MT4 cells assessed as inhibition of virus-induced cytopathicity measured 5 days post infection by MTT assay
Type: functional, organism-based
statedConditions: Human immunodeficiency virus 1, MT4, 120 h
Threshold check on EC50: strictly below 40 nM is 1 (yes); on or above 40 nM is 0 (no).

Past entries and their recorded results:
Cc1cc(C)cc(S(=O)(=O)c2c(C(=O)Nc3cccc(C#N)c3)[nH]c3ccc(Cl)cc23)c1 :: 1 (yes)
Cc1cc(C)cc(S(=O)(=O)c2c(C(=O)NCCc3cccnc3)[nH]c3ccc(Cl)cc23)c1 :: 1 (yes)
Cc1ccnc2c1NC(=O)c1cccnc1N2C1CC1 [NEVIRAPINE] :: 0 (no)
O=C1Nc2ccc(Cl)cc2[C@@](C#CC2CC2)(C(F)(F)F)O1 [EFAVIRENZ] :: 0 (no)
Cc1cc(C)cc(S(=O)(=O)c2c(C(=O)NCc3ccc(C#N)cc3)[nH]c3ccc(Cl)cc23)c1 :: 0 (no)
Cc1cc(C)cc(S(=O)(=O)c2c(C(=O)NCc3cccnc3)[nH]c3ccc(Cl)cc23)c1 :: 1 (yes)

Here's an entry: Cc1cc(C)cc(S(=O)(=O)c2c(C(=O)NCc3ccncc3)[nH]c3ccc(Cl)cc23)c1 . Is its EC50 below 40 nM?
1 (yes)

Please indicate whether the reported EC50 of Cc1cn([C@H]2C[C@H](N=[N+]=[N-])[C@@H](CO)O2)c(=O)[nH]c1=O [ZIDOVUDINE] is strictly below 40 nM.
1 (yes)

---

testTarget: Human immunodeficiency virus type 1 reverse transcriptase (Human immunodeficiency virus 1, UniProt Q72547, L100I)
protocolDescription: Inhibition of HIV1 reverse transcriptase L100I mutant RNA-dependent DNA polymerase activity using poly(rA)/oligo(dT)10:1 and [3H]-dTTP substrate
As shown below, each of these molecules has a reported pIC50 value.
Scale for pIC50: -log10 of concentration given in mol/L; no unit attached.

Cc1cc(C)cc(S(=O)(=O)c2c(C(=O)NCc3ccncc3)[nH]c3ccc(Cl)cc23)c1 :: 7.96
Cc1cc(C)cc(S(=O)(=O)c2c(C(=O)NCCc3cccnc3)[nH]c3ccc(Cl)cc23)c1 :: 7.62
Cc1cc(C)cc(S(=O)(=O)c2c(C(=O)Nc3cccc(C#N)c3)[nH]c3ccc(Cl)cc23)c1 :: 6.54

Moving on to the next molecule.
// Cc1cc(C)cc(S(=O)(=O)c2c(C(=O)NCc3cccnc3)[nH]c3ccc(Cl)cc23)c1 : pIC50 value = 8.10
